In this section we review reported CC50 values for a set of compounds.
Test system: A549
Experiment: Cytotoxicity against human A549 cells assessed as reduction in cell growth incubated for 48 hrs by CCK8 method
Format: functional
Response body: numeric value in µM, unit text excluded.

[
  {
    "compound": "C[C@@H]1CC[C@H]2[C@H](C)[C@H]3CC[C@@H]4[C@@H](C[C@H]5[C@H]4C[C@H](O)[C@H]4C[C@@H](O)CC[C@@]45C)[C@@H]3C[N+]2([O-])C1 (some centres undefined)",
    "experimentalTarget": "A549",
    "unitAnnotation": "µM",
    "CC50": 35
  },
  {
    "compound": "C[C@@H]1CC[C@H]2[C@H](C)[C@H]3CC[C@@H]4[C@@H](C[C@H]5[C@H]4CC(=O)[C@H]4C[C@@H](O[C@@H]6O[C@H](CO)[C@@H](O)[C@H](O)[C@H]6O)CC[C@@]45C)[C@H]3CN2C1",
    "experimentalTarget": "A549",
    "unitAnnotation": "µM",
    "CC50": 19
  },
  {
    "compound": "C[C@H]1CC[C@H]2[C@H](C)[C@H]3CC[C@@H]4[C@@H](C[C@H]5[C@H]4C[C@@H](O)[C@H]4C[C@@H](O)CC[C@@]45C)[C@@H]3CN2C1",
    "experimentalTarget": "A549",
    "unitAnnotation": "µM",
    "CC50": 19
  }
]

Pending compound:
Query: Param readout= CC50; system= A549; entry= "C[C@@H]1CC[C@H]2[C@H](C)[C@H]3CC[C@@H]4[C@@H](C[C@H]5[C@H]4CC(=O)[C@H]4C[C@@H](O)CC[C@@]45C)[C@@H]3CN2C1" ; returns value.
Response: 29

* * *

Tested on: A549
Assay: Cytotoxicity against human A549 cells assessed as reduction in cell growth incubated for 48 hrs by CCK8 method
Format: functional
In this section we review reported CC50 values for a set of compounds.
Response body: numeric value in µM, unit text excluded.

[
  {
    "chemicalString": "C[C@@H]1CC[C@H]2[C@@H](C)[C@H]3CC[C@@H]4[C@@H](C[C@H]5[C@H]4CC(=O)[C@H]4C[C@@H](O[C@@H]6O[C@H](CO)[C@@H](O)[C@H](O)[C@H]6O)CC[C@@]45C)[C@@H]3CN2C1",
    "unitAnnotation": "µM",
    "CC50": 39
  }
]

Pending compound:
Query: Given the compound "C[C@H]1CC[C@H]2[C@H](C)[C@H]3CC[C@@H]4[C@@H](C[C@H]5[C@H]4C[C@H](O)[C@H]4C[C@@H](O)CC[C@@]45C)[C@@H]3CN2C1" , what is its reported CC50?
Response: 11

* * *

In this section we review reported CC50 values for a set of compounds.
System: A549
Assay: Cytotoxicity against human A549 cells assessed as reduction in cell growth incubated for 48 hrs by CCK8 method
Type: functional
Response body: numeric value in µM, unit text excluded.

Example compounds with recorded CC50:
[
  {
    "compound": "CC1=C2C[C@H]3[C@@H](CC(=O)[C@H]4C[C@@H](O)CC[C@@]43C)[C@@H]2CC[C@]12O[C@@H]1C[C@H](C)CN[C@H]1[C@H]2C",
    "unitAnnotation": "µM",
    "CC50": 9.6
  },
  {
    "compound": "C[C@@H]1CC[C@H]2[C@H](C)[C@H]3CC[C@@H]4[C@@H](C[C@H]5[C@H]4CC(=O)[C@H]4C[C@@H](O)CC[C@@]45C)[C@H]3C[N+]2([O-])C1 (stereo not given in full)",
    "unitAnnotation": "µM",
    "CC50": 9.5
  },
  {
    "compound": "C[C@H]1CC[C@@H]2[C@H](C)[C@@H]3CC[C@@H]4[C@@H](C[C@H]5[C@H]4C[C@@H](O)[C@H]4C[C@@H](O)CC[C@@]45C)[C@@H]3CN2C1",
    "unitAnnotation": "µM",
    "CC50": 10
  },
  {
    "compound": "C[C@@H]1CC[C@H]2[C@H](C)c3ccc4c(c3CN2C1)C[C@H]1[C@H]4C[C@H](O)[C@H]2C[C@@H](O)CC[C@@]21C",
    "unitAnnotation": "µM",
    "CC50": 52
  }
]

Pending compound:
Query: Given the compound "C[C@H]1CC[C@H]2[C@H](C)[C@@H]3CC[C@@H]4[C@@H](C[C@H]5[C@H]4CC(=O)[C@H]4C[C@@H](O)CC[C@@]45C)[C@@H]3CN2C1" , what is its reported CC50?
Response: 30
